Target: Oxoeicosanoid receptor 1 (Homo sapiens)
Sequence (Q8TDS5 whole entry): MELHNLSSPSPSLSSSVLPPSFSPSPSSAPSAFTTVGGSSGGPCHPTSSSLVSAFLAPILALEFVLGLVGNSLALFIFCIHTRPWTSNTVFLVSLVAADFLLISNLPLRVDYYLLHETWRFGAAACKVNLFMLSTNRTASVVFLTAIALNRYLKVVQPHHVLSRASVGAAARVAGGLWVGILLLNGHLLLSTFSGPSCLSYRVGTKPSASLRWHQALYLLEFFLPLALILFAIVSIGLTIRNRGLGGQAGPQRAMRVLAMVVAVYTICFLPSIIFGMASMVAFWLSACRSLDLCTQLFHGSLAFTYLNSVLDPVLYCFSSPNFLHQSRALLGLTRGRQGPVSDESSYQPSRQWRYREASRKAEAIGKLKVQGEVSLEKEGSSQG
Assay: Antagonist activity at OXE receptor (unknown origin) expressed in indo-1 loaded neutrophils assessed as inhibition of 5-oxo-ETE-induced calcium mobilization incubated for 2 mins prior to 5-oxo-ETE induction by spectrofluorometric analysis
Format: functional
measured_attribute: IC50 (nM)

P. CCCCCCc1c(C(=O)CC(C)CC(=O)O)c2ccc(Cl)cc2n1C (configuration not stated)
Q. CCCCCCc1cc2ccccc2n1C(=O)CCCC(=O)O
query: Between the two listed entries P and Q , which has its IC50 at the higher number? Write the label of whichever entry you select.
result: Q
(Q: 1130 nM, P: 81 nM)

---

Target: Oxoeicosanoid receptor 1 (Homo sapiens)
Assay: Antagonist activity at OXE receptor (unknown origin) expressed in indo-1 loaded neutrophils assessed as inhibition of 5-oxo-ETE-induced calcium mobilization incubated for 2 mins prior to 5-oxo-ETE induction by spectrofluorometric analysis
Assay type: functional
measured_attribute: IC50 (µM)

a. CCCCCCCc1cc2ccccc2n1C(=O)CCCC(=O)O
b. CCCCCc1cc2ccccc2n1C(=O)CCCC(=O)O
c. CCCCCCc1[nH]c2ccccc2c1C(=O)CCCC(=O)O
query: Sort entries by IC50 from minimum to maximum value. In plain terms: list the labels in the order you were asked to.
result: a, b, c
(a: 0.75 µM, b: 2.15 µM, c: 9.75 µM)
